Here the recorded mass density is given for each entry.
- experimental-context: 333.15 K; 100 kPa; Liquid; Vibrating tube method
Numbers after ± are expanded uncertainties.
test-readout: mass density

>  <molecule>
CCCC[N+]1(C)CCCC1.O=S(=O)([N-]S(=O)(=O)C(F)(F)F)C(F)(F)F

>  <reported>
1370.2 ± 12 kg/m3

$$$$
>  <molecule>
CCC[n+]1cccc(C)c1.O=S(=O)([N-]S(=O)(=O)C(F)(F)F)C(F)(F)F

>  <reported>
1413.6 ± 12 kg/m3

$$$$
>  <molecule>
CCC[N+]1(C)CCCC1.O=S(=O)([N-]S(=O)(=O)C(F)(F)F)C(F)(F)F

>  <reported>
1399 ± 12 kg/m3

$$$$
>  <molecule>
CCC[N+]1(C)CCCCC1.O=S(=O)([N-]S(=O)(=O)C(F)(F)F)C(F)(F)F

>  <reported>
1377 ± 12 kg/m3

$$$$
>  <molecule>
CCn1cc[n+](C)c1.O=S(=O)([O-])C(F)(F)F [1-ethyl-3-methylimidazolium trifluoromethanesulfonate]

>  <reported>
1342.8 ± 12 kg/m3

$$$$

----------
- experimental-context: 333.15 K; 5000 kPa; Liquid; Vibrating tube method

>  <compound>
CCn1cc[n+](C)c1.O=S(=O)([O-])C(F)(F)F [1-ethyl-3-methylimidazolium trifluoromethanesulfonate]

>  <readout-units>
kg/m3

>  <mass density>
1346

$$$$
>  <compound>
CCCC[N+]1(C)CCCC1.O=S(=O)([N-]S(=O)(=O)C(F)(F)F)C(F)(F)F

>  <readout-units>
kg/m3

>  <mass density>
1374.2

$$$$
>  <compound>
CCC[n+]1cccc(C)c1.O=S(=O)([N-]S(=O)(=O)C(F)(F)F)C(F)(F)F

>  <readout-units>
kg/m3

>  <mass density>
1417.8

$$$$
>  <compound>
CCC[N+]1(C)CCCCC1.O=S(=O)([N-]S(=O)(=O)C(F)(F)F)C(F)(F)F

>  <readout-units>
kg/m3

>  <mass density>
1380.9

$$$$
>  <compound>
CCC[N+]1(C)CCCC1.O=S(=O)([N-]S(=O)(=O)C(F)(F)F)C(F)(F)F

>  <readout-units>
kg/m3

>  <mass density>
1403

$$$$

----------
Here the recorded mass density is given for each entry.
- experimental-context: 393.15 K; 1000 kPa; Liquid; Vibrating tube method

>  <compound>
CCC[N+]1(C)CCCCC1.O=S(=O)([N-]S(=O)(=O)C(F)(F)F)C(F)(F)F

>  <readout-units>
kg/m3

>  <mass density>
1323.2

$$$$
>  <compound>
CCCC[N+]1(C)CCCC1.O=S(=O)([N-]S(=O)(=O)C(F)(F)F)C(F)(F)F

>  <readout-units>
kg/m3

>  <mass density>
1316.1

$$$$
>  <compound>
CCn1cc[n+](C)c1.O=S(=O)([O-])C(F)(F)F [1-ethyl-3-methylimidazolium trifluoromethanesulfonate]

>  <readout-units>
kg/m3

>  <mass density>
1291.7

$$$$
>  <compound>
CCC[N+]1(C)CCCC1.O=S(=O)([N-]S(=O)(=O)C(F)(F)F)C(F)(F)F

>  <readout-units>
kg/m3

>  <mass density>
1344

$$$$
>  <compound>
CCC[n+]1cccc(C)c1.O=S(=O)([N-]S(=O)(=O)C(F)(F)F)C(F)(F)F

>  <readout-units>
kg/m3

>  <mass density>
1355.8

$$$$

----------
Here the recorded mass density is given for each entry.
- experimental-context: 323.15 K; 4000 kPa; Liquid; Vibrating tube method

>  <compound>
CCC[N+]1(C)CCCCC1.O=S(=O)([N-]S(=O)(=O)C(F)(F)F)C(F)(F)F

>  <mass density [kg/m3]>
1390.6

$$$$
>  <compound>
CCC[n+]1cccc(C)c1.O=S(=O)([N-]S(=O)(=O)C(F)(F)F)C(F)(F)F

>  <mass density [kg/m3]>
1427

$$$$
>  <compound>
CCCC[N+]1(C)CCCC1.O=S(=O)([N-]S(=O)(=O)C(F)(F)F)C(F)(F)F

>  <mass density [kg/m3]>
1382.8

$$$$
>  <compound>
CCn1cc[n+](C)c1.O=S(=O)([O-])C(F)(F)F [1-ethyl-3-methylimidazolium trifluoromethanesulfonate]

>  <mass density [kg/m3]>
1354.4

$$$$
>  <compound>
CCC[N+]1(C)CCCC1.O=S(=O)([N-]S(=O)(=O)C(F)(F)F)C(F)(F)F

>  <mass density [kg/m3]>
1411.8

$$$$

----------
- experimental-context: 353.15 K; 15000 kPa; Liquid; Vibrating tube method

>  <compound>
CCn1cc[n+](C)c1.O=S(=O)([O-])C(F)(F)F [1-ethyl-3-methylimidazolium trifluoromethanesulfonate]

>  <mass density, kg/m3>
1335.3

$$$$
>  <compound>
CCC[N+]1(C)CCCC1.O=S(=O)([N-]S(=O)(=O)C(F)(F)F)C(F)(F)F

>  <mass density, kg/m3>
1392.6

$$$$
>  <compound>
CCCC[N+]1(C)CCCC1.O=S(=O)([N-]S(=O)(=O)C(F)(F)F)C(F)(F)F

>  <mass density, kg/m3>
1364.1

$$$$
>  <compound>
CCC[n+]1cccc(C)c1.O=S(=O)([N-]S(=O)(=O)C(F)(F)F)C(F)(F)F

>  <mass density, kg/m3>
1406.8

$$$$
>  <compound>
CCC[N+]1(C)CCCCC1.O=S(=O)([N-]S(=O)(=O)C(F)(F)F)C(F)(F)F

>  <mass density, kg/m3>
1370.7

$$$$

----------
- experimental-context: 293.15 K; 100 kPa; Liquid; Vibrating tube method
± gives the expanded uncertainty stated by the source.
test-readout: mass density

>  <compound>
CCC[N+]1(C)CCCC1.O=S(=O)([N-]S(=O)(=O)C(F)(F)F)C(F)(F)F

>  <reported>
1438.6 ± 12 kg/m3

$$$$
>  <compound>
CCC[N+]1(C)CCCCC1.O=S(=O)([N-]S(=O)(=O)C(F)(F)F)C(F)(F)F

>  <reported>
1416.9 ± 12 kg/m3

$$$$
>  <compound>
CCCC[N+]1(C)CCCC1.O=S(=O)([N-]S(=O)(=O)C(F)(F)F)C(F)(F)F

>  <reported>
1409.1 ± 12 kg/m3

$$$$
>  <compound>
CCn1cc[n+](C)c1.O=S(=O)([O-])C(F)(F)F [1-ethyl-3-methylimidazolium trifluoromethanesulfonate]

>  <reported>
1379.6 ± 12 kg/m3

$$$$
>  <compound>
CCC[n+]1cccc(C)c1.O=S(=O)([N-]S(=O)(=O)C(F)(F)F)C(F)(F)F

>  <reported>
1454.9 ± 12 kg/m3

$$$$

----------
Here the recorded mass density is given for each entry.
- experimental-context: 353.15 K; 4000 kPa; Liquid; Vibrating tube method
test-readout: mass density (kg/m3)

>  <compound>
CCC[N+]1(C)CCCC1.O=S(=O)([N-]S(=O)(=O)C(F)(F)F)C(F)(F)F

>  <readout-units>
kg/m3

>  <reported>
1383.4

$$$$
>  <compound>
CCC[n+]1cccc(C)c1.O=S(=O)([N-]S(=O)(=O)C(F)(F)F)C(F)(F)F

>  <readout-units>
kg/m3

>  <reported>
1397.4

$$$$
>  <compound>
CCC[N+]1(C)CCCCC1.O=S(=O)([N-]S(=O)(=O)C(F)(F)F)C(F)(F)F

>  <readout-units>
kg/m3

>  <reported>
1361.9

$$$$
>  <compound>
CCCC[N+]1(C)CCCC1.O=S(=O)([N-]S(=O)(=O)C(F)(F)F)C(F)(F)F

>  <readout-units>
kg/m3

>  <reported>
1354.9

$$$$
>  <compound>
CCn1cc[n+](C)c1.O=S(=O)([O-])C(F)(F)F [1-ethyl-3-methylimidazolium trifluoromethanesulfonate]

>  <readout-units>
kg/m3

>  <reported>
1327.9

$$$$

----------
- experimental-context: 323.15 K; 25000 kPa; Liquid; Vibrating tube method
test-readout: mass density (kg/m3)

>  <molecule>
CCC[n+]1cccc(C)c1.O=S(=O)([N-]S(=O)(=O)C(F)(F)F)C(F)(F)F

>  <reported>
1443.3

$$$$
>  <molecule>
CCC[N+]1(C)CCCCC1.O=S(=O)([N-]S(=O)(=O)C(F)(F)F)C(F)(F)F

>  <reported>
1405

$$$$
>  <molecule>
CCC[N+]1(C)CCCC1.O=S(=O)([N-]S(=O)(=O)C(F)(F)F)C(F)(F)F

>  <reported>
1427.4

$$$$
>  <molecule>
CCCC[N+]1(C)CCCC1.O=S(=O)([N-]S(=O)(=O)C(F)(F)F)C(F)(F)F

>  <reported>
1398.5

$$$$
>  <molecule>
CCn1cc[n+](C)c1.O=S(=O)([O-])C(F)(F)F [1-ethyl-3-methylimidazolium trifluoromethanesulfonate]

>  <reported>
1367.2

$$$$
